experiment: Apparent solubility test (USP <1236>); conditions: pH 12.0 buffer solution, 20 °C, pH 12, aqueous buffer, thermodynamic from solid
observedProperty: solubility

Query: Recorded solubility of CCOc1ccc(Cc2cc([C@@H]3O[C@H](CO)[C@@H](O)[C@H](O)[C@H]3O)ccc2Cl)cc1 [Dapagliflozin] , please.
Response: 100 to 1000 µg/mL

###

assay: Equilibrium solubility test (HPLC); details: buffer solution, pH 11, aqueous buffer, thermodynamic from solid
observedProperty: solubility thermodynamic at 12 h (µg/mL)
Give just the numeric value; µg/mL need not be written.

Query: # query: solubility thermodynamic at 12 h of entry `CCOc1ccc(Cc2cc([C@@H]3O[C@H](CO)[C@@H](O)[C@H](O)[C@H]3O)ccc2Cl)cc1`
Response: 210

###

assay: Equilibrium solubility test (HPLC); conditions: pH 2, aqueous buffer, thermodynamic from solid
observedProperty: solubility thermodynamic at 24 h
In your response, put the unit directly after the numeric value.

Query: So what does the record say about solubility thermodynamic at 24 h for `N[C@@H](CC(=O)N1CCn2c(nnc2C(F)(F)F)C1)Cc1cc(F)c(F)cc1F.O.O=P(O)(O)O` ?
Response: 3110 µg/mL

###

experiment: Equilibrium solubility test (HPLC); conditions: buffer solution, pH 6.8, aqueous buffer, thermodynamic from solid
observedProperty: solubility thermodynamic at 12 h (µg/mL)
// note: answer is a bare numeric in µg/mL

Query: For the compound `CCOc1ccc(Cc2cc([C@@H]3O[C@H](CO)[C@@H](O)[C@H](O)[C@H]3O)ccc2Cl)cc1` , what solubility thermodynamic at 12 h is on record?
Response: 330

###

Assay: Apparent solubility test (USP <1236>)
Conditions: buffer solution, 20 °C, pH 11, aqueous buffer, thermodynamic from solid
Experimental: Then, 200 μL of each solvent was added and stirred at 400 rpm. The temperature of the sample was maintained at 20 ± 2 °C. After shaking for 30 s every 5 min, 200 μL of each solvent was added until no particles of the API were visible. The apparent solubility of the two main components was estimated through the point at which all of the API dissolved and became clear.
observedProperty: solubility

Query: So what does the record say about solubility for `CCOc1ccc(Cc2cc([C@@H]3O[C@H](CO)[C@@H](O)[C@H](O)[C@H]3O)ccc2Cl)cc1` ?
Response: 100 to 1000 µg/mL

###

assay: Equilibrium solubility test (HPLC); details: buffer solution, pH 6.8, aqueous buffer, thermodynamic from solid
observedProperty: solubility thermodynamic at 24 h (µg/mL)
Kindly answer with a numeric value in µg/mL, unit omitted.

Query: Tell me the measured solubility thermodynamic at 24 h of CCOc1ccc(Cc2cc([C@@H]3O[C@H](CO)[C@@H](O)[C@H](O)[C@H]3O)ccc2Cl)cc1 [Dapagliflozin] , please.
Response: 330

###

assay: Equilibrium solubility test (HPLC); conditions: pH 8, aqueous buffer, thermodynamic from solid
observedProperty: solubility thermodynamic at 24 h
Remember to follow the number with its unit.

Query: Fill in the blank: the reported solubility thermodynamic at 24 h of N[C@@H](CC(=O)N1CCn2c(nnc2C(F)(F)F)C1)Cc1cc(F)c(F)cc1F.O.O=P(O)(O)O [Sitagliptin] is ____.
Response: 1430 µg/mL

###

assay: Apparent solubility test (USP <1236>); conditions: 20 °C, pH 4, aqueous buffer, thermodynamic from solid
observedProperty: solubility

Query: Quick check: solubility of `N[C@@H](CC(=O)N1CCn2c(nnc2C(F)(F)F)C1)Cc1cc(F)c(F)cc1F.O.O=P(O)(O)O` ?
Response: 1000 to 10000 µg/mL

###

test: Apparent solubility test (USP <1236>); details: ethanol, 20 °C, organic solvent or mixture, thermodynamic from solid
observedProperty: solubility

Query: What value of measured solubility is listed for `CCOc1ccc(Cc2cc([C@@H]3O[C@H](CO)[C@@H](O)[C@H](O)[C@H]3O)ccc2Cl)cc1` ?
Response: 33 to 100 mg/mL

###

experiment: Equilibrium solubility test (HPLC); conditions: buffer solution, pH 10, aqueous buffer, thermodynamic from solid
observedProperty: solubility thermodynamic at 12 h (µg/mL)
Lab book: enter the figure in µg/mL, no units written.

Query: Param item = `CCOc1ccc(Cc2cc([C@@H]3O[C@H](CO)[C@@H](O)[C@H](O)[C@H]3O)ccc2Cl)cc1` ; retrieve measured solubility thermodynamic at 12 h.
Response: 340

###

Test: Equilibrium solubility test (HPLC)
Conditions: pH 12.0 buffer solution, pH 12, aqueous buffer, thermodynamic from solid
Description: The column used was an Agilent C18 column (5.0 μm, 4.6 × 150 mm). The mobile phase and diluted solution of the content and dissolution studies analyses were prepared with 0.5% triethylamine buffer (v/v, pH 6.8 adjusted with 85% phosphoric acid) and acetonitrile at a ratio of 7:3 (v/v). […] In the case of the content and dissolution studies, the mobile phase was constantly flowed for 18 min via an isocratic elution method and analyzed. […]
observedProperty: solubility thermodynamic at 24 h
Lab note: write values as number then unit, every time.

Query: If you can, please state the reported solubility thermodynamic at 24 h value of `CCOc1ccc(Cc2cc([C@@H]3O[C@H](CO)[C@@H](O)[C@H](O)[C@H]3O)ccc2Cl)cc1` .
Response: 240 µg/mL

###

assay: Apparent solubility test (USP <1236>); settings: methanol, 20 °C, organic solvent or mixture, thermodynamic from solid
observedProperty: solubility

Query: Given the compound `CCOc1ccc(Cc2cc([C@@H]3O[C@H](CO)[C@@H](O)[C@H](O)[C@H]3O)ccc2Cl)cc1` , what is its reported solubility?
Response: 100 to 1000 mg/mL

###

test: Equilibrium solubility test (HPLC); conditions: pH 2, aqueous buffer, thermodynamic from solid
observedProperty: solubility thermodynamic at 12 h (µg/mL)
Write the value in µg/mL as a bare number.

Query: Fill in the blank: the reported solubility thermodynamic at 12 h of `N[C@@H](CC(=O)N1CCn2c(nnc2C(F)(F)F)C1)Cc1cc(F)c(F)cc1F.O.O=P(O)(O)O` is ____.
Response: 3110

###

assay: Apparent solubility test (USP <1236>); conditions: buffer solution, 20 °C, pH 7, aqueous buffer, thermodynamic from solid
observedProperty: solubility

Query: Form field: reported solubility of `CCOc1ccc(Cc2cc([C@@H]3O[C@H](CO)[C@@H](O)[C@H](O)[C@H]3O)ccc2Cl)cc1`
Response: 0.1 to 1 mg/mL

###

test: Apparent solubility test (USP <1236>); conditions: 20 °C, pH 7, aqueous buffer, thermodynamic from solid
observedProperty: solubility

Query: Recorded solubility for `N[C@@H](CC(=O)N1CCn2c(nnc2C(F)(F)F)C1)Cc1cc(F)c(F)cc1F.O.O=P(O)(O)O` , please?
Response: 1000 to 10000 µg/mL

###

experiment: Equilibrium solubility test (HPLC); conditions: pH 8, aqueous buffer, thermodynamic from solid
observedProperty: solubility thermodynamic at 12 h (µg/mL)
Answer in µg/mL, number only, no unit symbol.

Query: Given the entry `N[C@@H](CC(=O)N1CCn2c(nnc2C(F)(F)F)C1)Cc1cc(F)c(F)cc1F.O.O=P(O)(O)O` , report its measured solubility thermodynamic at 12 h.
Response: 1420

###

assay: Equilibrium solubility test (HPLC); settings: buffer solution, pH 8, aqueous buffer, thermodynamic from solid
observedProperty: solubility thermodynamic at 24 h (µg/mL)
Report as a plain number; the unit µg/mL is understood.

Query: What measured solubility thermodynamic at 24 h goes with `CCOc1ccc(Cc2cc([C@@H]3O[C@H](CO)[C@@H](O)[C@H](O)[C@H]3O)ccc2Cl)cc1` ?
Response: 350

###

assay: Equilibrium solubility test (HPLC); details: pH 3, aqueous buffer, thermodynamic from solid
observedProperty: solubility thermodynamic at 12 h (µg/mL)
Report the value in µg/mL with no unit label.

Query: For the compound shown here, `N[C@@H](CC(=O)N1CCn2c(nnc2C(F)(F)F)C1)Cc1cc(F)c(F)cc1F.O.O=P(O)(O)O` , give the reported solubility thermodynamic at 12 h.
Response: 1700

###

assay: Apparent solubility test (USP <1236>); conditions: deionized water, 20 °C, water, thermodynamic from solid
observedProperty: solubility

Query: Can you look up the measured solubility of `CCOc1ccc(Cc2cc([C@@H]3O[C@H](CO)[C@@H](O)[C@H](O)[C@H]3O)ccc2Cl)cc1` for me?
Response: 100 to 1000 µg/mL

###

assay: Equilibrium solubility test (HPLC); details: pH 5, aqueous buffer, thermodynamic from solid
observedProperty: solubility thermodynamic at 12 h (µg/mL)
Dear colleague, please return just the value in µg/mL, with no unit written.

Query: Item under review: N[C@@H](CC(=O)N1CCn2c(nnc2C(F)(F)F)C1)Cc1cc(F)c(F)cc1F.O.O=P(O)(O)O [Sitagliptin] . Reported solubility thermodynamic at 12 h?
Response: 1510

###

Assay: Apparent solubility test (USP <1236>)
Settings: 20 °C, pH 5, aqueous buffer, thermodynamic from solid
Experimental: Then, 200 μL of each solvent was added and stirred at 400 rpm. The temperature of the sample was maintained at 20 ± 2 °C. After shaking for 30 s every 5 min, 200 μL of each solvent was added until no particles of the API were visible. The apparent solubility of the two main components was estimated through the point at which all of the API dissolved and became clear.
observedProperty: solubility

Query: Find the recorded solubility belonging to `N[C@@H](CC(=O)N1CCn2c(nnc2C(F)(F)F)C1)Cc1cc(F)c(F)cc1F.O.O=P(O)(O)O` and report it.
Response: 1000 to 10000 µg/mL
